Every entry's value here was drawn from paper PMC9712106.

assayed-target: T1, PfCSS (residues 20 to 290) (P. falciparum, N-linked glycan on Asn88 (seen in the crystal structure))
T1 chain: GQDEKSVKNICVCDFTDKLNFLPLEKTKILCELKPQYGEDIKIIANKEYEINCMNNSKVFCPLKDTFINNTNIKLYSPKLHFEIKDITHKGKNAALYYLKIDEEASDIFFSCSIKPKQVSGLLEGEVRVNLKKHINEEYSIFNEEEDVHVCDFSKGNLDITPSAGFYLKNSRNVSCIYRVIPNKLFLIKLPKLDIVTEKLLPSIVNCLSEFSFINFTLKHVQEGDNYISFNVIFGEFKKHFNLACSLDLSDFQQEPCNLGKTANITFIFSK
assay-details: BLI
pKd: −log10 of the molar value.

# binder, pKd
measured = [
    ("anti-PfCSS nanobody F1 (VHH) VHH: QVQLQESGGGLVQAGGPLRLSCVASGRTFSLHLMGWFRQAPGKEREFVAAISGSGGSTYYADSVKGRFTISRDNAKNTVYLQMNSLKPEDTAVYYCAADLENYMSTMLDGYNYWGQGTQVTVSS", 8.46),
    ("anti-PfCSS nanobody B1 (VHH) VHH: QVQLQESGGGLVQYGGSLRLSCAASGRTFSSYSMGWFRQAPGKEREFVAAISWTGGNTYYLGSTEGRFTISRDNAKNTVFLQMNNLKPEDTAVYYCAAKGRGSSWPTYDYRGQGTQVTVSS", 8.40),
    ("anti-PfCSS nanobody C9 (VHH) VHH: QVQLQESGGGLVQAGDSLRLSCAASGRTFSSYAMGWFRQAPGKEREFVAAIAWNGGSTYYQDSVKGRFTISRDNAKNTVYLQMNSLKPEDTAVYYCAADDSYMSTMIHEYDYWGQGTQVTVSS", 8.19),
    ("anti-PfCSS nanobody C1 (VHH) VHH: QVQLQESGGGLVQAGGSLRLSCAASGRSFSSYAMGWFSQAPGKEREFVAAISWNGGSTYYADSVKGRFTISRNNAKNTVYLQMNSLKPEDTAVYYCAATEPEIYISTMAEGYDYWGQGTQVTVSS", 9.00),
    ("anti-PfCSS nanobody D1 (VHH) VHH: QVQLQESGGGLVQAGGSLRLSCAASGRTFSSLAMGWFRQPPGKEREFVAAISYSSGSTYYADSVKGRFTISRDNAKNTVYLQMNSLKPEDTAVYYCAVTPPDTYISTMGHEYDYWGQGTQVTVSS", 8.59),
    ("anti-PfCSS nanobody D9 (VHH) VHH: QVQLQESGGGLVQAGGSLTLSCAASGRTFSRSAMGWFRQAPGKGREFVAAISSGDTSTYYMDSVKGRFTISRDSSKNTVYLQMNNLRPEDTAVYYCAADPKSYITTMISEYDIWGQGTQVTVSS", 8.36),
    ("anti-PfCSS nanobody B6 (VHH) VHH: QVQLQESGGGLVQAGGSLRLSCAASGRTFSRYAMGWFRQAPGKEREFVAAISWSGGSTTYADSVKGRFTISRDNAKNTVYLQMNSLKPEDTAVYYCAAGDFIIGNMASEYEYWGQGTQVTVSS", 9.18),
    ("anti-PfCSS nanobody C10 (VHH) VHH: QVQLQESGGGLVQAGGSLRLSCVASGRTFSNDAMGWFRQAPGKEREFVAAATRNGLGTGYADSVKGRFTISRDNAKNTVYLQMNSLKPEDTAVYYCAAASDAYYSNQRAAYDYWGQGTQVTVSS", 8.82),
    ("H2 nanobody (anti-PfCSS, non-inhibitory) (VHH) VHH: QVQLQESGGGLVQPGGSLRLSCAASGSIFSTNAMGWYRQAPGKQREQVATITSGSSTNYADSVKGRFTISRDNAKNTVYLQMNSLKPEDTAVYYCNAAGATIDLADFGSWGQGTQVTVSS", 9.06),
]
